# Test system: PPARa:RXRa (NR concentration 270 nM, RXRa partner concentration 90 nM)
# experimental.protocol: PBM binding z-score (relative to random genomic background probes); higher = stronger binding; sequences stand for … in GC…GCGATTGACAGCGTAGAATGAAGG
experimental.readout: PBM binding z-score
Number only, please.

// solved cases for PBM binding z-score follow
# residues, reported.result
records = [
    ("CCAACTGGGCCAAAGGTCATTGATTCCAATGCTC", 6.66),
    ("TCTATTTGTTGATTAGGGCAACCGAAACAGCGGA", 0.93),
    ("CAAACTAGGTCACAGAGCTCAAAGTCCGTGCGTA", 5.45),
    ("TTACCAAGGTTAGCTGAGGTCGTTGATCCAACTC", 2.24),
    ("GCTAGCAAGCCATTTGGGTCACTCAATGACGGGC", 1.15),
]

Please look at the following sequence next.
Quick one: PBM binding z-score for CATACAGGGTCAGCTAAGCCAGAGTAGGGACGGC ? 4.39
